# system: CDK1/Cyclin B1, GST-tag (Homo sapiens)
# Construct: GST
# Sequence (P06493 whole entry): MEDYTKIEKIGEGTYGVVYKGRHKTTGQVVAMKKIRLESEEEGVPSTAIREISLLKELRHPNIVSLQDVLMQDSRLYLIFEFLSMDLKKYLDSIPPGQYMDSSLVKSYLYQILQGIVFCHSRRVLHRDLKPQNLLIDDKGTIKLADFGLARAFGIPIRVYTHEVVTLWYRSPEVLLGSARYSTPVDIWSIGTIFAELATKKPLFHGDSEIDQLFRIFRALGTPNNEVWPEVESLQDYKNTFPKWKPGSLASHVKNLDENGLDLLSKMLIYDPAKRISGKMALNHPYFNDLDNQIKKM
# Sequence (P14635 whole entry partner): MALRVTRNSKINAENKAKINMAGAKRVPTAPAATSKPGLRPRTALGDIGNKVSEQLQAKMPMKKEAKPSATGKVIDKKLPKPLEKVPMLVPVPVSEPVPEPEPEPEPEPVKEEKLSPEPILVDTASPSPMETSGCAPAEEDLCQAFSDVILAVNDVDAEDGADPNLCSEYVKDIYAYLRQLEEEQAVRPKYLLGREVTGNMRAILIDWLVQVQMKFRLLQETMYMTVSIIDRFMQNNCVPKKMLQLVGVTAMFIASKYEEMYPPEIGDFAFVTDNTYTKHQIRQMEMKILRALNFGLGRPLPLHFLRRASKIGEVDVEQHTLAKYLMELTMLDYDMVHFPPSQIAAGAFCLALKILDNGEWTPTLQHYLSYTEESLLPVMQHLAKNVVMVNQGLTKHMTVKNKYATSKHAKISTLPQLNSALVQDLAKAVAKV
# assay name: CDK1/Cyclin B1 biochemical phosphorylation assay (Caliper mobility shift)
# study conditions: apparent IC50; 1.0 mM ATP or ATP Km; 1.5 nM enzyme; 25° C.
# From the text: […]
This listing pairs compounds with measured IC50.

>  <compound>
C[C@@H](c1cnccc1F)n1ncc2ncc(Nc3cc(OC(F)F)[nH]n3)nc21 (single isomer, unassigned) [Example 173]

>  <IC50>
≥ 500 nM

$$$$
>  <compound>
C[C@@H](O)c1nn(CC2CCOCC2)c2nc(Nc3cc(OC(F)F)[nH]n3)cnc12 (single isomer, unassigned) [Example 176]

>  <IC50>
100 to 500 nM

$$$$
>  <compound>
C[C@@H](C1CC1)n1ncc2ncc(Nc3cc(OC(F)F)[nH]n3)nc21

>  <IC50>
100 to 500 nM

$$$$
>  <compound>
COc1cc(Nc2cnc3cnn(C(C)c4cccnn4)c3n2)n[nH]1 (single isomer, unassigned) [Example 33]

>  <IC50>
100 to 500 nM

$$$$
>  <compound>
COc1cc(Nc2cnc3cnn([C@@H](CF)C4CCOCC4)c3n2)n[nH]1 (single isomer, unassigned) [Example 195]

>  <IC50>
≥ 500 nM

$$$$
>  <compound>
OC[C@@H](c1cccnc1)n1ncc2ncc(Nc3cc(OC(F)F)[nH]n3)nc21

>  <IC50>
≥ 500 nM

$$$$
>  <compound>
COc1cc(Nc2cnc3c(F)nn([C@@H](C)C4CCOCC4)c3n2)n[nH]1

>  <IC50>
≥ 500 nM

$$$$
>  <compound>
FC(F)Oc1cc(Nc2cnc3cnn([C@H](c4ccccc4)C4COC4)c3n2)n[nH]1 (single isomer, unassigned) [Example 161]

>  <IC50>
≥ 500 nM

$$$$
>  <compound>
FC[C@H](C1CCOCC1)n1ncc2ncc(Nc3cc(OC(F)F)[nH]n3)nc21 (single isomer, unassigned)

>  <IC50>
≥ 500 nM

$$$$
>  <compound>
COc1cc(Nc2cnc3cnn(CC4CCOCC4)c3n2)n[nH]1

>  <IC50>
≥ 500 nM

$$$$
>  <compound>
C[C@@H](c1ccccc1)n1ncc2ncc(Nc3cc(OC(F)F)[nH]n3)nc21

>  <IC50>
≥ 500 nM

$$$$
>  <compound>
C[C@]1(Cn2ncc3ncc(Nc4cc(OC(F)F)[nH]n4)nc32)CCOC1 (single isomer, unassigned) [Example 165]

>  <IC50>
≥ 500 nM

$$$$
>  <compound>
N#CCC1(Cn2ncc3ncc(Nc4cc(OC(F)F)[nH]n4)nc32)CC1

>  <IC50>
≥ 500 nM

$$$$
>  <compound>
FC(F)Oc1cc(Nc2cnc3cnn(Cc4cccnc4)c3n2)n[nH]1

>  <IC50>
≥ 500 nM

$$$$
>  <compound>
O=C1C[C@H](Cn2ncc3ncc(Nc4cc(OC(F)F)[nH]n4)nc32)CN1 (single isomer, unassigned)

>  <IC50>
≥ 500 nM

$$$$

====

# system: CDK2/Cyclin E (Homo sapiens, UniProt P24941)
# assay name: CDK2/Cyclin E biochemical phosphorylation assay (Caliper mobility shift)
# study conditions: apparent IC50; 1.0 mM ATP or ATP Km; 1.25 nM enzyme; 25° C.; read-out: CDK2/cyclin E1 IC50
pIC50: −log10 of the molar value.
This listing pairs compounds with measured pIC50.

>  <compound>
C[C@@H]([C@@H]1COCCO1)n1ncc2ncc(Nc3cc(OC(F)F)[nH]n3)nc21 (single isomer, unassigned) [Example 214]

>  <system>
CDK2/Cyclin E (Homo sapiens, UniProt P24941)

>  <pIC50>
7.70 to 8.00

$$$$
>  <compound>
FC[C@H](C1CCOCC1)n1ncc2ncc(Nc3cc(OC(F)F)[nH]n3)nc21 (single isomer, unassigned)

>  <system>
CDK2/Cyclin E (Homo sapiens, UniProt P24941)

>  <pIC50>
7.00 to 7.52

$$$$
>  <compound>
O[C@H]1CC[C@@H](n2ncc3ncc(Nc4cc(OC(F)F)[nH]n4)nc32)C1 (single isomer, unassigned) [Example 208]

>  <system>
CDK2/Cyclin E (Homo sapiens, UniProt P24941)

>  <pIC50>
≥ 8.00

$$$$
>  <compound>
FC(F)Oc1cc(Nc2cnc3cnn(C[C@@H]4CCCCO4)c3n2)n[nH]1

>  <system>
CDK2/Cyclin E (Homo sapiens, UniProt P24941)

>  <pIC50>
7.52 to 7.70

$$$$

====

# system: CDK2/Cyclin E (Homo sapiens)
# assay name: CDK2/Cyclin E biochemical phosphorylation assay (Caliper mobility shift)
# study conditions: apparent IC50; 1.0 mM ATP or ATP Km; 1.25 nM enzyme; 25° C.; read-out: CDK2/cyclin E1 IC50

>  <compound>
O[C@H]1CC[C@@H](n2ncc3ncc(Nc4cc(OC(F)F)[nH]n4)nc32)CC1

>  <system>
CDK2/Cyclin E (Homo sapiens)

>  <IC50>
30 to 100 nM

$$$$
>  <compound>
FC(F)Oc1cc(Nc2cnc3cnn(CCc4ccncc4)c3n2)n[nH]1

>  <system>
CDK2/Cyclin E (Homo sapiens)

>  <IC50>
≤ 10 nM

$$$$
>  <compound>
FC(F)Oc1cc(Nc2cnc3cnn(Cc4cnccn4)c3n2)n[nH]1

>  <system>
CDK2/Cyclin E (Homo sapiens)

>  <IC50>
20 to 30 nM

$$$$
>  <compound>
C[C@H](CO)Cn1ncc2ncc(Nc3cc(OC(F)F)[nH]n3)nc21

>  <system>
CDK2/Cyclin E (Homo sapiens)

>  <IC50>
30 to 100 nM

$$$$
>  <compound>
C[C@@H](c1cc(F)ccn1)n1ncc2ncc(Nc3cc(OC(F)F)[nH]n3)nc21 (single isomer, unassigned)

>  <system>
CDK2/Cyclin E (Homo sapiens)

>  <IC50>
≤ 10 nM

$$$$
>  <compound>
C[C@H](c1cccc(F)n1)n1ncc2ncc(Nc3cc(OC(F)F)[nH]n3)nc21 (single isomer, unassigned) [Example 156]

>  <system>
CDK2/Cyclin E (Homo sapiens)

>  <IC50>
≤ 10 nM

$$$$
>  <compound>
CC1(Cn2ncc3ncc(Nc4cc(OC(F)F)[nH]n4)nc32)COC1

>  <system>
CDK2/Cyclin E (Homo sapiens)

>  <IC50>
≤ 10 nM

$$$$
>  <compound>
N#CC1(Cn2ncc3ncc(Nc4cc(OC(F)F)[nH]n4)nc32)CCOCC1

>  <system>
CDK2/Cyclin E (Homo sapiens)

>  <IC50>
30 to 100 nM

$$$$
>  <compound>
FC(F)Oc1cc(Nc2cnc3cnn(C[C@@]4(F)CCOC4)c3n2)n[nH]1 (single isomer, unassigned) [Example 168]

>  <system>
CDK2/Cyclin E (Homo sapiens)

>  <IC50>
30 to 100 nM

$$$$
>  <compound>
FC(F)Oc1cc(Nc2cnc3cnn(CC4(C(F)F)CCOCC4)c3n2)n[nH]1

>  <system>
CDK2/Cyclin E (Homo sapiens)

>  <IC50>
20 to 30 nM

$$$$
>  <compound>
FC(F)Oc1cc(Nc2cnc3cnn(CC4CCC4)c3n2)n[nH]1

>  <system>
CDK2/Cyclin E (Homo sapiens)

>  <IC50>
≤ 10 nM

$$$$
>  <compound>
CC1(C)C[C@H](Cn2ncc3ncc(Nc4cc(OC(F)F)[nH]n4)nc32)C(=O)N1 (single isomer, unassigned) [Example 185]

>  <system>
CDK2/Cyclin E (Homo sapiens)

>  <IC50>
30 to 100 nM

$$$$
>  <compound>
C[C@@H](c1ccccc1F)n1ncc2ncc(Nc3cc(OC(F)F)[nH]n3)nc21

>  <system>
CDK2/Cyclin E (Homo sapiens)

>  <IC50>
≤ 10 nM

$$$$

====

# system: CDK2/Cyclin E (Homo sapiens)
# assay name: CDK2/Cyclin E biochemical phosphorylation assay (Caliper mobility shift)
# study conditions: apparent IC50; 1.0 mM ATP or ATP Km; 1.25 nM enzyme; 25° C.; read-out: CDK2/cyclin E1 IC50
pIC50: −log10 of the molar value.
observable: pIC50

>  <compound>
CC(C1CCCOC1)n1ncc2ncc(Nc3cc(OC(F)F)[nH]n3)nc21 (single isomer, unassigned)

>  <system>
CDK2/Cyclin E (Homo sapiens)

>  <observable>
pIC50

>  <experimental result>
≥ 8.00

$$$$
>  <compound>
Fc1ncccc1Cn1ncc2ncc(Nc3cc(OC(F)F)[nH]n3)nc21

>  <system>
CDK2/Cyclin E (Homo sapiens)

>  <observable>
pIC50

>  <experimental result>
≥ 8.00

$$$$
>  <compound>
C[C@@H](c1cccnc1F)n1ncc2ncc(Nc3cc(OC(F)F)[nH]n3)nc21

>  <system>
CDK2/Cyclin E (Homo sapiens)

>  <observable>
pIC50

>  <experimental result>
≥ 8.00

$$$$
>  <compound>
FC[C@H](c1cccnc1)n1ncc2ncc(Nc3cc(OC(F)F)[nH]n3)nc21 (single isomer, unassigned)

>  <system>
CDK2/Cyclin E (Homo sapiens)

>  <observable>
pIC50

>  <experimental result>
7.52 to 7.70

$$$$
>  <compound>
FC(F)Oc1cc(Nc2cnc3cnn(C[C@@H]4COCCO4)c3n2)n[nH]1

>  <system>
CDK2/Cyclin E (Homo sapiens)

>  <observable>
pIC50

>  <experimental result>
≥ 8.00

$$$$
>  <compound>
C[C@@H]([C@H]1CCCOC1)n1ncc2ncc(Nc3cc(OC(F)F)[nH]n3)nc21 (single isomer, unassigned) [Example 215]

>  <system>
CDK2/Cyclin E (Homo sapiens)

>  <observable>
pIC50

>  <experimental result>
≥ 8.00

$$$$
>  <compound>
C[C@@H](O)c1nn(CC2CCOCC2)c2nc(Nc3cc(OC(F)F)[nH]n3)cnc12 (single isomer, unassigned) [Example 175]

>  <system>
CDK2/Cyclin E (Homo sapiens)

>  <observable>
pIC50

>  <experimental result>
≥ 8.00

$$$$
>  <compound>
N#C[C@H]1C[C@H](Cn2ncc3ncc(Nc4cc(OC(F)F)[nH]n4)nc32)C1 (single isomer, unassigned) [Example 190]

>  <system>
CDK2/Cyclin E (Homo sapiens)

>  <observable>
pIC50

>  <experimental result>
< 7.00

$$$$
>  <compound>
O[C@@H]1C[C@H]1Cn1ncc2ncc(Nc3cc(OC(F)F)[nH]n3)nc21 (single isomer, unassigned) [Example 179]

>  <system>
CDK2/Cyclin E (Homo sapiens)

>  <observable>
pIC50

>  <experimental result>
7.00 to 7.52

$$$$
>  <compound>
FC[C@H](c1ccccc1)n1ncc2ncc(Nc3cc(OC(F)F)[nH]n3)nc21 (single isomer, unassigned)

>  <system>
CDK2/Cyclin E (Homo sapiens)

>  <observable>
pIC50

>  <experimental result>
7.00 to 7.52

$$$$
>  <compound>
C[C@@H](c1cccc(F)c1)n1ncc2ncc(Nc3cc(OC(F)F)[nH]n3)nc21

>  <system>
CDK2/Cyclin E (Homo sapiens)

>  <observable>
pIC50

>  <experimental result>
≥ 8.00

$$$$
>  <compound>
FC(F)Oc1cc(Nc2cnc3cnn([C@H](c4ccccc4)C4COC4)c3n2)n[nH]1 (single isomer, unassigned) [Example 161]

>  <system>
CDK2/Cyclin E (Homo sapiens)

>  <observable>
pIC50

>  <experimental result>
7.00 to 7.52

$$$$
>  <compound>
FC(F)Oc1cc(Nc2cnc3cnn(CC4CCCCC4)c3n2)n[nH]1

>  <system>
CDK2/Cyclin E (Homo sapiens)

>  <observable>
pIC50

>  <experimental result>
≥ 8.00

$$$$
>  <compound>
Cc1ncccc1Cn1ncc2ncc(Nc3cc(OC(F)F)[nH]n3)nc21

>  <system>
CDK2/Cyclin E (Homo sapiens)

>  <observable>
pIC50

>  <experimental result>
7.52 to 7.70

$$$$
>  <compound>
COc1cc(Nc2cnc3cnn([C@@H](C)c4cc(F)ccn4)c3n2)n[nH]1 (single isomer, unassigned) [Example 187]

>  <system>
CDK2/Cyclin E (Homo sapiens)

>  <observable>
pIC50

>  <experimental result>
< 7.00

$$$$
